Examples of molecules with documented fold change (FC) follow.
System: Human immunodeficiency virus 1
Assay: Antiviral activity against HIV1 A17 harboring protease L10F, V32I, M46I, I47V, Q58E and I84V mutant infected in human MT4 cells assessed as inhibition of virus-induced cell death after 5 days by MTT assay relative to wild type HIV1 pNL4-3
Type: functional
Form: value (number only, do not type unit).

>>> reported_measurement("COC(=O)N[C@H](C(=O)N[C@@H](Cc1ccccc1)C[C@H](O)[C@H](Cc1ccc(-c2ccc(N)cc2)cc1)NC(=O)[C@@H](NC(=O)OC)C(C)(C)C)C(C)(C)C")
7
>>> reported_measurement("COC(=O)N[C@H](C(=O)N[C@@H](Cc1ccccc1)C[C@H](O)[C@H](Cc1ccc(-c2ccc(O)cc2)cc1)NC(=O)[C@@H](NC(=O)OC)C(C)(C)C)C(C)(C)C")
3

Noted for `COC(=O)N[C@H](C(=O)N[C@@H](Cc1ccccc1)C[C@H](O)[C@H](Cc1ccc(-c2ccccn2)cc1)NC(=O)[C@@H](NC(=O)OC)C(C)(C)C)C(C)(C)C` : its fold change (FC) reads 20

Sample `COC(=O)N[C@H](C(=O)N[C@@H](Cc1ccccc1)C[C@H](O)[C@H](Cc1ccc(-c2ccc(OC)cc2)cc1)NC(=O)[C@@H](NC(=O)OC)C(C)(C)C)C(C)(C)C` ; fold change (FC) observed: 48

Note to self: fold change (FC) recorded for `COC(=O)N[C@H](C(=O)N[C@@H](Cc1ccccc1)C[C@H](O)[C@H](Cc1ccc(-c2cccnc2)cc1)NC(=O)[C@@H](NC(=O)OC)C(C)(C)C)C(C)(C)C` was 2

So for `COC(=O)N[C@H](C(=O)N[C@@H](Cc1ccccc1)C[C@H](O)[C@H](Cc1ccc(-c2ccc(CO)cc2)cc1)NC(=O)[C@@H](NC(=O)OC)C(C)(C)C)C(C)(C)C` , the logged fold change (FC) turned out to be 2

====

Assay: AUC in rat at 5 mg/kg, po co-administered with 5 mg/kg of CYP3A4 inhibitor ritonavir
Assay type: ADME, organism-based
Conditions: plasma
// NB: equality with 300 ng·h/mL counts as Condition not met; only AUC strictly below is Condition met

Solved entries (count: 2):
>>> class_assignment("COC(=O)N[C@H](C(=O)N[C@@H](Cc1ccccc1)C[C@H](O)[C@H](Cc1ccc(-c2cccc(N)c2)cc1)NC(=O)[C@@H](NC(=O)OC)C(C)(C)C)C(C)(C)C")
"Condition met"
>>> class_assignment("COC(=O)N[C@H](C(=O)N[C@@H](Cc1ccccc1)C[C@H](O)[C@H](Cc1ccc(-c2cccnc2)cc1)NC(=O)[C@@H](NC(=O)OC)C(C)(C)C)C(C)(C)C")
"Condition not met"

Field: below-cutoff. Rule: recorded AUC strictly less than 300 ng·h/mL. Subject: `COC(=O)N[C@H](C(=O)N[C@@H](Cc1ccccc1)C[C@H](O)[C@H](Cc1ccc(-c2cnc3ccccc3c2)cc1)NC(=O)[C@@H](NC(=O)OC)C(C)(C)C)C(C)(C)C`
Condition not met

====

Assay: Oral bioavailability in rat at 5 mg/kg co-administered with 5 mg/kg of CYP3A4 inhibitor ritonavir relative to iv dose without ritonavir co-administration
Assay type: ADME, organism-based
Details: in vivo
readout.name: bioavailability (%)
Quick reminder: number only, in %, skip the unit.

Study these solved cases before continuing.
>>> reported_measurement("COC(=O)N[C@H](C(=O)N[C@@H](Cc1ccccc1)C[C@H](O)[C@H](Cc1ccc(-c2cccnc2)cc1)NC(=O)[C@@H](NC(=O)OC)C(C)(C)C)C(C)(C)C")
25
>>> reported_measurement("COC(=O)N[C@H](C(=O)N[C@@H](Cc1ccccc1)C[C@H](O)[C@H](Cc1ccc(-c2cccc(N)c2)cc1)NC(=O)[C@@H](NC(=O)OC)C(C)(C)C)C(C)(C)C")
5

The compound `COC(=O)N[C@H](C(=O)N[C@@H](Cc1ccccc1)C[C@H](O)[C@H](Cc1ccc(-c2ccc(CO)cc2)cc1)NC(=O)[C@@H](NC(=O)OC)C(C)(C)C)C(C)(C)C` showed bioavailability equal to 0.3

====

Tested on: Human immunodeficiency virus 1
Assay: Antiviral activity against HIV1 A17 harboring protease L10F, V32I, M46I, I47V, Q58E and I84V mutant infected in human MT4 cells assessed as inhibition of virus-induced cell death after 5 days by MTT assay relative to wild type HIV1 pNL4-3
Type: functional
readout.name: fold change (FC)
Give the figure only, with no unit attached.

>>> reported_measurement("COC(=O)N[C@H](C(=O)N[C@@H](Cc1ccccc1)C[C@H](O)[C@H](Cc1ccc(-c2ccc(C#N)nc2)cc1)NC(=O)[C@@H](NC(=O)OC)C(C)(C)C)C(C)(C)C")
8
>>> reported_measurement("COC(=O)N[C@H](C(=O)N[C@@H](Cc1ccccc1)C[C@H](O)[C@H](Cc1ccc(-c2ccc(C(C)=O)cc2)cc1)NC(=O)[C@@H](NC(=O)OC)C(C)(C)C)C(C)(C)C")
9
>>> reported_measurement("COC(=O)N[C@H](C(=O)N[C@@H](Cc1ccccc1)C[C@H](O)[C@H](Cc1ccc(-c2ccc(F)nc2)cc1)NC(=O)[C@@H](NC(=O)OC)C(C)(C)C)C(C)(C)C")
12
>>> reported_measurement("COC(=O)N[C@H](C(=O)N[C@@H](Cc1ccccc1)C[C@H](O)[C@H](Cc1ccc(-c2cnccn2)cc1)NC(=O)[C@@H](NC(=O)OC)C(C)(C)C)C(C)(C)C")
7
>>> reported_measurement("COC(=O)N[C@H](C(=O)N[C@H](Cc1ccc(-c2ccccn2)cc1)C[C@H](O)[C@H](Cc1ccccc1)NC(=O)[C@@H](N1CCN(Cc2cccc(C(C)(C)O)n2)C1=O)C(C)(C)C)C(C)(C)C")
3
>>> reported_measurement("COC(=O)N[C@H](C(=O)N[C@@H](Cc1ccccc1)C[C@H](O)[C@H](Cc1ccc(-c2cncnc2)cc1)NC(=O)[C@@H](NC(=O)OC)C(C)(C)C)C(C)(C)C")
41

Could you now look at the following compound, please?
// fold change (FC) lookup, compound = `CNC(=O)c1cccc(-c2ccc(C[C@H](NC(=O)[C@@H](NC(=O)OC)C(C)(C)C)[C@@H](O)C[C@H](Cc3ccccc3)NC(=O)[C@@H](NC(=O)OC)C(C)(C)C)cc2)c1` , result: 0.4

====

Experiment: Cmax in rat at 5 mg/kg, po
Assay type: ADME, organism-based
Design: dose 5 mg/kg, route oral
Conditions: in vivo
readout.name: Cmax (ng/mL)
Number only, in ng/mL; omit the unit.

These solved cases illustrate the format of a correct answer.
>>> reported_measurement("COC(=O)N[C@H](C(=O)N[C@@H](Cc1ccccc1)C[C@H](O)[C@H](Cc1ccc(-c2cccnc2)cc1)NC(=O)[C@@H](NC(=O)OC)C(C)(C)C)C(C)(C)C")
180
>>> reported_measurement("COC(=O)N[C@H](C(=O)N[C@@H](Cc1ccccc1)C[C@H](O)[C@H](Cc1ccc(-c2cccc(N)c2)cc1)NC(=O)[C@@H](NC(=O)OC)C(C)(C)C)C(C)(C)C")
100
>>> reported_measurement("COC(=O)N[C@H](C(=O)N[C@@H](Cc1ccccc1)C[C@H](O)[C@H](Cc1ccc(-c2cnc3ccccc3c2)cc1)NC(=O)[C@@H](NC(=O)OC)C(C)(C)C)C(C)(C)C")
20
>>> reported_measurement("COC(=O)N[C@H](C(=O)N[C@@H](Cc1ccccc1)C[C@H](O)[C@H](Cc1ccc(-c2ccccn2)cc1)NC(=O)[C@@H](NC(=O)OC)C(C)(C)C)C(C)(C)C")
280

Cmax recorded for this molecule, `COC(=O)N[C@H](C(=O)N[C@@H](Cc1ccccc1)C[C@H](O)[C@H](Cc1ccc(-c2cncc(F)c2)cc1)NC(=O)[C@@H](NC(=O)OC)C(C)(C)C)C(C)(C)C` , is 110

====

Assay: Aqueous solubility of the compound
Assay type: physicochemical
Details: buffer
readout.name: solubility (µM)
Kindly provide the numeric value in µM only, without the unit symbol.

Measured solubility, `COC(=O)N[C@H](C(=O)N[C@@H](Cc1ccccc1)C[C@H](O)[C@H](Cc1ccc(-c2cncc(F)c2)cc1)NC(=O)[C@@H](NC(=O)OC)C(C)(C)C)C(C)(C)C` : 10.4

====

Test system: Human immunodeficiency virus 1
Assay: Antiviral activity against HIV1 B26 harboring protease L33F, K45I, M46I, I50V, A71V and V82F mutant infected in human MT4 cells assessed as inhibition of virus-induced cell death after 5 days by MTT assay relative to wild type HIV1 pNL4-3
Format: functional
Binning of fold change (FC) into classes: range A (below 3), range B (3 to below 10), range C (10 or more)

The examples below pair each entry with its known result.
>>> class_assignment("COC(=O)N[C@H](C(=O)N[C@@H](Cc1ccccc1)C[C@H](O)[C@H](Cc1ccc(-c2cncnc2)cc1)NC(=O)[C@@H](NC(=O)OC)C(C)(C)C)C(C)(C)C")
"range C"
>>> class_assignment("COC(=O)N[C@H](C(=O)N[C@@H](Cc1ccccc1)C[C@H](O)[C@H](Cc1ccc(-c2cnccn2)cc1)NC(=O)[C@@H](NC(=O)OC)C(C)(C)C)C(C)(C)C")
"range B"
>>> class_assignment("COC(=O)N[C@H](C(=O)N[C@@H](Cc1ccccc1)C[C@H](O)[C@H](Cc1ccc(-c2ccc(C#N)nc2)cc1)NC(=O)[C@@H](NC(=O)OC)C(C)(C)C)C(C)(C)C")
"range C"
>>> class_assignment("COC(=O)N[C@H](C(=O)N[C@@H](Cc1ccccc1)C[C@H](O)[C@H](Cc1ccc(-c2ccc(CO)nc2)cc1)NC(=O)[C@@H](NC(=O)OC)C(C)(C)C)C(C)(C)C")
"range A"
>>> class_assignment("COC(=O)N[C@H](C(=O)N[C@@H](Cc1ccccc1)C[C@H](O)[C@H](Cc1ccc(-c2ccc(CO)cc2)cc1)NC(=O)[C@@H](NC(=O)OC)C(C)(C)C)C(C)(C)C")
"range A"
>>> class_assignment("CNC(=O)c1cccc(-c2ccc(C[C@H](NC(=O)[C@@H](NC(=O)OC)C(C)(C)C)[C@@H](O)C[C@H](Cc3ccccc3)NC(=O)[C@@H](NC(=O)OC)C(C)(C)C)cc2)c1")
"range A"
>>> class_assignment("COC(=O)N[C@H](C(=O)N[C@@H](Cc1ccccc1)C[C@H](O)[C@H](Cc1ccc(-c2ccc(C(C)=O)cc2)cc1)NC(=O)[C@@H](NC(=O)OC)C(C)(C)C)C(C)(C)C")
"range B"
>>> class_assignment("CNC(=O)c1ccc(-c2ccc(C[C@H](NC(=O)[C@@H](NC(=O)OC)C(C)(C)C)[C@@H](O)C[C@H](Cc3ccccc3)NC(=O)[C@@H](NC(=O)OC)C(C)(C)C)cc2)cc1")
"range A"

Kindly identify the class of `COC(=O)N[C@H](C(=O)N[C@@H](Cc1ccccc1)C[C@H](O)[C@H](Cc1ccc(-c2ccccn2)cc1)NC(=O)[C@@H](NC(=O)OC)C(C)(C)C)C(C)(C)C` .
range C

Place this compound in its band: `COC(=O)N[C@H](C(=O)N[C@@H](Cc1ccccc1)C[C@H](O)[C@H](Cc1ccc(-c2cccc(CO)c2)cc1)NC(=O)[C@@H](NC(=O)OC)C(C)(C)C)C(C)(C)C`
range A

Pick a category. Item: `Cc1cccc(C)c1OCC(=O)N[C@@H](Cc1ccccc1)[C@@H](O)C[C@H](Cc1ccccc1)NC(=O)[C@H](C(C)C)N1CCCNC1=O`
range C

Form field 'band' for `COC(=O)N[C@H](C(=O)N[C@@H](Cc1ccccc1)C[C@H](O)[C@H](Cc1ccc(-c2ccc(N)cc2)cc1)NC(=O)[C@@H](NC(=O)OC)C(C)(C)C)C(C)(C)C`
range B

Kindly state the category for this compound: `COC(=O)N[C@H](C(=O)N[C@@H](Cc1ccccc1)C[C@H](O)[C@H](Cc1ccc(-c2ccc(F)nc2)cc1)NC(=O)[C@@H](NC(=O)OC)C(C)(C)C)C(C)(C)C`
range C

In plain terms, what class is `COC(=O)N[C@H](C(=O)N[C@H](Cc1ccc(-c2ccccn2)cc1)C[C@H](O)[C@H](Cc1ccccc1)NC(=O)[C@@H](N1CCN(Cc2cccc(C(C)(C)O)n2)C1=O)C(C)(C)C)C(C)(C)C` ?
range B

Could you tell me which band `COC(=O)N[C@H](C(=O)N[C@@H](Cc1ccccc1)C[C@H](O)[C@H](Cc1ccc(-c2ccc(OC)cc2)cc1)NC(=O)[C@@H](NC(=O)OC)C(C)(C)C)C(C)(C)C` belongs to?
range C

GET /class?item= `COC(=O)N[C@H](C(=O)N[C@@H](Cc1ccccc1)C[C@H](O)[C@H](Cc1ccc(-c2ccccc2)cc1)NC(=O)[C@@H](NC(=O)OC)C(C)(C)C)C(C)(C)C`
range C

The values you see were collected from ChEMBL document CHEMBL1833957.
